Tested on: Staphylococcus epidermidis
Test: Antimicrobial activity against methicillin-resistant Staphylococcus epidermidis shhs-E1 clinical isolate by serial dilution/CLSI method
Assay type: functional
Non-standard residues stand in square brackets, D forms with d. Residues, ends and D or L forms follow the SMILES beside them. aIle = CC[C@@H](C)[C@H](N)C(=O)O
EXPERIMENTAL READOUT: MIC

// query MIC value for entry CC[C@@H](C)[C@@H]1NC(=O)[C@@H](CC(C)C)NC(=O)[C@H](CC(C)C)NC(=O)[C@H](CC(=O)c2ccccc2N)NC(=O)CNC(=O)[C@H](CC(N)=O)NC1=O
> 128 µg/mL

How about CC[C@@H](C)[C@@H]1NC(=O)[C@@H](CC(C)C)NC(=O)[C@H](CC(C)C)NC(=O)[C@H](CC(=O)c2ccccc2NC=O)NC(=O)CNC(=O)[C@H](CC(N)=O)NC1=O ?
> 128 µg/mL

Note, next up: CC[C@@H](C)[C@@H]1NC(=O)[C@@H](CC(C)C)NC(=O)[C@H](CC(C)C)NC(=O)[C@H](Cc2c[nH]c3ccccc23)NC(=O)CNC(=O)[C@H](CC(N)=O)NC1=O [DESOTAMIDE] (cyclo(GWL[dL][aIle]N))
32 µg/mL

What do you have for CC(C)C[C@@H]1NC(=O)[C@H](Cc2c[nH]c3ccccc23)NC(=O)CNC(=O)[C@H](CC(N)=O)NC(=O)[C@H](C(C)C)NC(=O)[C@@H](CC(C)C)NC1=O ?
32 µg/mL

====

Can you tell me IC50 for the items I'm about to list?
System: HepG2
Experiment: Cytotoxicity against human HepG2 cells after 72 hrs by SRB assay
Format: functional, cell-based
Details: HepG2, 72 h
Non-standard residues stand in square brackets, D forms with d. Residues, ends and D or L forms follow the SMILES beside them. aIle = CC[C@@H](C)[C@H](N)C(=O)O

Consider the compound CC(C)C[C@@H]1NC(=O)[C@H](Cc2c[nH]c3ccccc23)NC(=O)CNC(=O)[C@H](CC(N)=O)NC(=O)[C@H](C(C)C)NC(=O)[C@@H](CC(C)C)NC1=O and give its measured IC50.
> 100 µM

Next entry: CC[C@@H](C)[C@@H]1NC(=O)[C@@H](CC(C)C)NC(=O)[C@H](CC(C)C)NC(=O)[C@H](CC(=O)c2ccccc2N)NC(=O)CNC(=O)[C@H](CC(N)=O)NC1=O
> 100 µM

Also CC[C@@H](C)[C@@H]1NC(=O)[C@@H](CC(C)C)NC(=O)[C@H](CC(C)C)NC(=O)[C@H](Cc2c[nH]c3ccccc23)NC(=O)CNC(=O)[C@H](CC(N)=O)NC1=O [DESOTAMIDE] (cyclo(GWL[dL][aIle]N)) , if possible.
> 100 µM

// next record CC[C@@H](C)[C@@H]1NC(=O)[C@@H](CC(C)C)NC(=O)[C@H](CC(C)C)NC(=O)[C@H](CC(=O)c2ccccc2NC=O)NC(=O)CNC(=O)[C@H](CC(N)=O)NC1=O
> 100 µM

====

Field: pIC50. Provide a value for each of the molecules that follow.
Test system: MCF7
Assay: Cytotoxicity against human MCF7 cells after 72 hrs by SRB assay
Assay type: functional, cell-based
Details: MCF7, 72 h
pIC50: −log10 of the molar value. Non-standard residues stand in square brackets, D forms with d. Residues, ends and D or L forms follow the SMILES beside them. aIle = CC[C@@H](C)[C@H](N)C(=O)O

For CC[C@@H](C)[C@@H]1NC(=O)[C@@H](CC(C)C)NC(=O)[C@H](CC(C)C)NC(=O)[C@H](CC(=O)c2ccccc2NC=O)NC(=O)CNC(=O)[C@H](CC(N)=O)NC1=O , what is its reported pIC50?
< 4.00

Try the molecule CC[C@@H](C)[C@@H]1NC(=O)[C@@H](CC(C)C)NC(=O)[C@H](CC(C)C)NC(=O)[C@H](Cc2c[nH]c3ccccc23)NC(=O)CNC(=O)[C@H](CC(N)=O)NC1=O [DESOTAMIDE] (cyclo(GWL[dL][aIle]N))
< 4.00

// same read-out, input: CC(C)C[C@@H]1NC(=O)[C@H](Cc2c[nH]c3ccccc23)NC(=O)CNC(=O)[C@H](CC(N)=O)NC(=O)[C@H](C(C)C)NC(=O)[C@@H](CC(C)C)NC1=O
< 4.00

How about this molecule: CC[C@@H](C)[C@@H]1NC(=O)[C@@H](CC(C)C)NC(=O)[C@H](CC(C)C)NC(=O)[C@H](CC(=O)c2ccccc2N)NC(=O)CNC(=O)[C@H](CC(N)=O)NC1=O
< 4.00

Values from ChEMBL document CHEMBL3352821
